- SUBJECT OF TEST: Hfq Y25D (distal face) (Escherichia coli, UniProt P0A6X3 1-102, Y25D)
- ASSAY SUMMARY: filter binding
ASSAY ENDPOINT: Kd (nM)

BINDER: AgvB-U9 (structured_RNA) RNA: GGCGAUAACACAACAAUAUCAGUAUCUCAUGCUAUUGCCCGAACCCAUUCGGGCAUUUUUUUUU
ASSAY ENDPOINT: Kd
ENDPOINT RESULT: 0.12
